tested on: CDC2L5; construct: gene CDK13; conditions: concentration: 1 μM, replicates: in singlicate; n = 1;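 note: KINOMEscan kinase panel screen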
Assign %Inh to each entry below.
Give bare numbers, in %.

- CCC(=O)c1c(-c2ccccc2)c2cc(Cl)ccc2c(=O)n1Cc1cc(S(C)(=O)=O)n(CCC(C)(C)O)n1: 23
- COC(=O)c1c(-c2ccccc2)c2cc(Br)ccc2c(=O)n1Cc1ccc(NC(=O)CCC(=O)O)cc1: 13
- OCCCNc1nccc(-c2c(-c3cccc(C(F)(F)F)c3)nn3cc(C(F)(F)F)ccc23)n1 [GW630813]: 0
- Cl.NS(=O)(=O)c1cccc(Nc2cc(-c3ccc(F)cc3)n[nH]2)c1 [GW824645]: 0
- O=C(Nc1n[nH]c2nc(-c3ccccc3)c(Br)cc12)C1CC1 [SB-708998]: 0

State recorded %Inh for all listed molecules.
1. Cl.c1ccc(Cn2cnc3cc(Nc4ncnc5ccccc45)ccc32)cc1 [GW272142]
2. Nc1n[nH]c2ncc(-c3ccccc3)cc12 [SB-517081]
3. O=c1cc(N2CCOCC2)nc2n(Cc3ccc(F)c(Cl)c3)ccn12 [GSK2297099]

[0, 0, 0]

GET /values?readout=%Inh&system=CDC2L5&item= CCC(=O)c1c(-c2ccccc2)c2cc(Cl)ccc2c(=O)n1Cc1cc(S(C)(=O)=O)n(CC(F)F)n1
24

====

system: GRK4; details: concentration: 1 μM, replicates: in singlicate; n = 1
Assign class by %Inh: not lower than 20% means class 1; lower than 20% means class 0.

- COc1cc2nccc(Nc3cccc(Oc4ccccc4)c3)c2cc1OC.Cl [GW284543]: class 0
- O=C(Nc1n[nH]c2nc(-c3ccccc3)c(Cl)cc12)C1CC1 [SB-734909]: class 0
- COC(=O)c1c(-c2ccccc2)c2cc(C)ccc2c(=O)n1Cc1ccccc1: class 1
- CCn1c(-c2nonc2N)nc2ccccc21 [SB-693162/GW549034]: class 1
- Nc1ncnc2c1ncn2-c1cccc(F)c1 [SKF-97560]: class 0

Entry COc1cc2ncn(-c3cc(OCc4ccc(S(C)(=O)=O)cc4)c(C(N)=O)s3)c2cc1OC [GW869979] : is its %Inh no less than 20%?
class 0

Entry Cc1nn2c(=O)cc(N3CCOCC3)nc2n1Cc1cccc(Cl)c1Cl [GSK2342769] : is its %Inh no less than 20%?
class 0

Entry COc1ccc(-n2cnc3c(N)ncnc32)cc1 [SKF-97236] : is its %Inh no less than 20%?
class 1

====

tested on: CDC2L5; construct: gene CDK13; conditions: concentration: 1 μM, replicates: in singlicate; n = 1
value_kind: %Inh (%)
Numbers only, in %.

Recorded %Inh, per entry:
- O=C(NCc1cccs1)c1cc(C(=O)c2c(Cl)cccc2Cl)c[nH]1: 0
- Cc1nn2c(=O)cc(N3CCOCC3)nc2n1Cc1cccc(Cl)c1Cl: 0
- Cc1ccccc1COc1cc(-n2cnc3cc(Cl)ccc32)sc1C(N)=O: 0
- COc1ccc(-n2cnc3c(N)ncnc32)cc1: 4
- COc1ccc(-c2coc3ccc(-c4nnc(SCc5cccc(C#N)c5)o4)cc23)cc1: 0

State recorded %Inh for all listed compounds.
1. Cc1nc(N(C)[C@H]2CN(C(=O)CC#N)CC[C@H]2C)c2cc[nH]c2n1
2. CCn1c(-c2ccoc2)nc2cnccc21
3. Nc1nc(N)c2nc(-c3ccccc3)[nH]c2n1
4. Cc1nnc(-c2ccc3ncn(-c4ccc(S(C)=O)cc4)c3c2)o1 (stereo not shown)
5. CN1C(=O)C(Nc2ccccc2)=C(c2ccccc2)C1=O

1. 0
2. 0
3. 5
4. 0
5. 0

====

test system: PAK3; conditions: concentration: 1 μM, replicates: in singlicate; n = 1
value_kind: %Inh (%)
Numbers only, in %.

Recorded %Inh, per entry:
- OCCCNc1nccc(-c2c(-c3cccc(C(F)(F)F)c3)nn3cc(C(F)(F)F)ccc23)n1: 3
- Cn1c(=O)c(F)c(Nc2ccc(I)cc2F)c2c(=O)n(OC[C@H](O)CO)cnc21: 1
- O=C(NCc1cccs1)c1cc(C(=O)c2c(Cl)cccc2Cl)c[nH]1: 10
- COC(=O)c1c(-c2ccccc2)c2cc(Br)ccc2c(=O)n1Cc1ccc(NC(=O)CCC(=O)O)cc1: 0
- COC(=O)c1c(-c2ccccc2)c2cc(Br)ccc2c(=O)n1Cc1ccc(S(C)(=O)=O)cc1: 26
- COc1ccc(-c2cc3c(C)nc(N)nc3n([C@H]3CC[C@H](O)CC3)c2=O)cn1: 0

State recorded %Inh for all listed compounds.
1. COc1cc(Nc2ccnc3ccc(C(F)(F)F)cc23)cc(OC)c1OC
2. COc1cc2ncn(-c3cc(OCCCc4ccccc4)c(C(N)=O)s3)c2cc1OC

1. 31
2. 6

====

system: ERK3; construct: gene MAPK6; conditions: concentration: 1 μM, replicates: in singlicate; n = 1
Assign %Inh to each entry below.

Recorded %Inh, per entry:
• COc1cc2ncn(-c3cc(OCc4ccc(S(C)(=O)=O)cc4)c(C(N)=O)s3)c2cc1OC = 6%
• Cc1ccccc1COc1cc(-n2cnc3cc(Cl)ccc32)sc1C(N)=O = 0%
• COc1cc(Nc2nccc(N3CCC(NC(=O)C4COc5ccccc5O4)C3)n2)cc(OC)c1OC (stereo not drawn) = 5%
• Nc1nccc2scc(-c3ccc4c(c3)CCN4C(=O)Cc3ccccc3)c12 = 0%

State recorded %Inh for all listed compounds.
1. COc1cccc(-n2cnc3c(N)ncnc32)c1
2. Cl.c1ccc(Cn2cnc3cc(Nc4ncnc5ccccc45)ccc32)cc1
3. CCc1nc(-c2cccc(C)c2)c(-c2ccncc2)s1
4. COc1ccc(-c2coc3ccc(-c4nnc(SCc5cccc(C#N)c5)o4)cc23)cc1

5%
19%
0%
0%

# query: %Inh of entry CN(C)c1cc(-c2ccc3c(N)n[nH]c3c2)nc(N)n1
11%

====

tested on: CAMKK1; conditions: concentration: 1 μM, replicates: in singlicate; n = 1
value_kind: %Inh (%)
Give bare numbers, in %.

Recorded %Inh, per entry:
• Nc1nc(-c2ccccc2F)c(-c2ccnc3ccccc23)s1 = 10
• CCn1c(-c2ccoc2)nc2cnccc21 = 4
• Cc1nnc(-c2ccc(C)c(-c3ccc(C(=O)O)cc3)c2)o1 = 7
• COc1cccc(C2=C(N(C)c3ccccc3)C(=O)NC2=O)c1 = 0

State recorded %Inh for all listed compounds.
1. CN1C(=O)C(Nc2ccccc2)=C(c2ccccc2)C1=O
2. COC(=O)c1c(-c2ccccc2)c2cc(Br)ccc2c(=O)n1Cc1ccc(NC(=O)CCC(=O)O)cc1
3. CCC(=O)c1c(-c2ccccc2)c2cc(Cl)ccc2c(=O)n1Cc1cc(S(C)(=O)=O)n(CC(F)F)n1
4. Cc1cccc(-c2cc(-c3c[nH]nc3-c3ccccn3)ccn2)c1
5. O=C1NC(=O)C(c2ccccc2)=C1Nc1cccc(O)c1
6. OCCCNc1nccc(-c2c(-c3cccc(C(F)(F)F)c3)nn3cc(C(F)(F)F)ccc23)n1

0
0
0
9
0
5

State recorded %Inh for all listed compounds.
1. CCn1c(-c2nonc2N)nc2ccccc21
2. Nc1n[nH]c2ncc(-c3ccccc3)cc12
3. COC(=O)c1c(-c2ccccc2)c2cc(C)ccc2c(=O)n1Cc1ccccc1
4. O=c1cc(N2CCOCC2)nc2n(Cc3ccc(F)c(Cl)c3)ccn12
5. Cc1ccccc1COc1cc(-n2cnc3cc(Cl)ccc32)sc1C(N)=O
6. Nc1ncnc2c1ncn2-c1cccc2ccccc12
7. COc1cc2ncn(-c3cc(OCc4ccncc4)c(C(N)=O)s3)c2cc1OC
8. Cc1nnc(-c2ccc3ncn(-c4ccc(S(C)=O)cc4)c3c2)o1 (centres unmarked)

9
0
0
28
0
0
0
0

State recorded %Inh for all listed compounds.
1. CN(C)c1cc(-c2ccc3c(N)n[nH]c3c2)nc(N)n1
2. O=C(Nc1n[nH]c2nc(-c3ccccc3)c(Br)cc12)C1CC1

[0, 0]

====

Assign %Inh to each entry below.
tested on: PAK2; conditions: concentration: 1 μM, replicates: in singlicate; n = 1
Note to self: number, then unit, no commentary.

• COc1cccc(C2=C(N(C)c3ccccc3)C(=O)NC2=O)c1 = 0%
• COc1cc2nccc(Nc3ccc(OCc4ccc(NC(C)=O)cc4)cc3)c2cc1OC.Cl = 0%
• CCn1c(-c2nonc2N)nc2ccccc21 = 27%

State recorded %Inh for all listed molecules.
1. Nc1nc(-c2ccccc2F)c(-c2ccnc3ccccc23)s1
2. O=C(Nc1n[nH]c2cc(-c3ccccc3F)ccc12)C1CC1

18%
0%

====

test system: KIT; details: concentration: 1 μM, replicates: in singlicate; n = 1
Assign %Inh to each entry below.
One number for each entry, in %.

Recorded %Inh, per entry:
* CCS(=O)(=O)c1ccc(OC)c(Nc2ncc(-c3ccc(F)cc3)o2)c1.Cl | 17
* COc1cccc(C2=C(N(C)c3ccccc3)C(=O)NC2=O)c1 | 0
* CN1C(=O)C(Nc2ccccc2)=C(c2ccccc2)C1=O | 0

# query: %Inh of entry Nc1n[nH]c2nnc(-c3ccccc3)c(-c3ccccc3)c12
18
